Assay: Gelling of water-immiscible cosmetic liquids in 96 well glass micro-titre plate
Assay type: physicochemical
Parameters: key: gel; g4: gel after overnight (18 hrs) storage at 4° C.; g22: gel after overnight (18 hrs) storage at 22° C.; sg: soft gel; sg22: soft gel after overnight (18 hrs) storage at 22° C.; solution; *: the test at 4° C. was not carried out
Conditions: 5% cellobiose ester in IPM
MEASURED_QUANTITY: gelling of IPM

| COMPOUND | RESULT |
| --- | --- |
| CCCCCCCCCCCCCCCC(=O)OC1OC(COC(=O)CCCCCCCC)C(OC2OC(COC(=O)CCCCCCCC)C(OC(=O)CCCCCCCC)C(OC(=O)CCCCCCCC)C2OC(=O)CCCCCCCC)C(OC(=O)CCCCCCCC)C1OC(=O)CCCCCCCC (mixture of isomers) [Ex 1.9] | g4 |
| CCCCCCCCC(=O)OCC1OC(OC2C(COC(=O)CCCCCCCC)OC(OC(=O)c3ccccc3)C(OC(=O)CCCCCCCC)C2OC(=O)CCCCCCCC)C(OC(=O)CCCCCCCC)C(OC(=O)CCCCCCCC)C1OC(=O)CCCCCCCC (mixture of isomers) [Ex 1.1] | g4 |
| CCCCCCCCC(=O)OCC1OC(OC2C(COC(=O)CCCCCCCC)OC(OC(=O)C3CCCCC3)C(OC(=O)CCCCCCCC)C2OC(=O)CCCCCCCC)C(OC(=O)CCCCCCCC)C(OC(=O)CCCCCCCC)C1OC(=O)CCCCCCCC (mixture of isomers) [Ex 1.11] | sol |
| CCCCCCCCC(=O)OCC1OC(OC2C(COC(=O)CCCCCCCC)OC(OC(=O)c3ccccc3)C(OC(=O)CCCCCCCC)C2OC(=O)CCCCCCCC)C(OC(=O)CCCCCCCC)C(OC(=O)CCCCCCCC)C1OC(=O)CCCCCCCC (mixture of isomers) [Ex 1.2] | sol |
| CCCCCCCCC(=O)OCC1OC(OC2C(COC(=O)CCCCCCCC)OC(OC(=O)c3ccc4ccccc4c3)C(OC(=O)CCCCCCCC)C2OC(=O)CCCCCCCC)C(OC(=O)CCCCCCCC)C(OC(=O)CCCCCCCC)C1OC(=O)CCCCCCCC (mixture of isomers) [Ex 1.4] | sol |
| CCCCCCCCC(=O)OCC1OC(OC2C(COC(=O)CCCCCCCC)OC(OC(=O)c3ccc4ccccc4c3)C(OC(=O)CCCCCCCC)C2OC(=O)CCCCCCCC)C(OC(=O)CCCCCCCC)C(OC(=O)CCCCCCCC)C1OC(=O)CCCCCCCC (mixture of isomers) [Ex 1.3] | g4 |
